experiment: Tmax in mouse at 10 mg/kg, po; format: ADME, organism-based; conditions: in vivo
measured.attribute: Tmax (h)
The reply should be a number in h, with the unit left off.

[
  {
    "line.notation": "CCCCc1nc(=O)cc(O)n1-c1c(C)cccc1OC",
    "quantity.unit": "h",
    "Tmax": 4
  }
]

Return the recorded Tmax value; entry: CCCSc1nc(=O)cc(O)n1-c1ccccc1OC 4

---

molecular target: Apelin receptor (Homo sapiens, UniProt P35414); assay: Agonist activity at human APJ expressed in HEK293 cells assessed as inhibition of forskolin-stimulated cAMP production
Sequence (P35414 whole entry): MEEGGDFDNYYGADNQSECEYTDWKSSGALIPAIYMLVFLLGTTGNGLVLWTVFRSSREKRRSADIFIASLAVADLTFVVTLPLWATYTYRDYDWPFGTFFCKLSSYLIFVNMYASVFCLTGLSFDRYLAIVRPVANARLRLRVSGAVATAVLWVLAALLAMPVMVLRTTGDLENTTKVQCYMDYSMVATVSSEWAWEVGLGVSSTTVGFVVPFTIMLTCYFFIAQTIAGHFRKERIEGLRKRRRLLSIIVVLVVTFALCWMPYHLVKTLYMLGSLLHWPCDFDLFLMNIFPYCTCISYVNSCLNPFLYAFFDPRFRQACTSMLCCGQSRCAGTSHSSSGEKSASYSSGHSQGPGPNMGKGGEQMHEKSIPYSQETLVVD
Please note: EC50 exactly at 0.3 µM is condition not met. Only values below 0.3 µM get condition met.

Solved cases below.
[
  {
    "compound": "CCCSc1nc(=O)cc(O)n1-c1cccc(C)c1",
    "label": "condition met"
  },
  {
    "compound": "CCCSc1nc(=O)cc(O)n1-c1ccccc1OCC",
    "label": "condition met"
  },
  {
    "compound": "CCCSc1nc(=O)cc(O)n1-c1ccc(OC)cc1",
    "label": "condition not met"
  },
  {
    "compound": "C=CCc1c(O)n(-c2ccccc2OC)c(SCCC)nc1=O",
    "label": "condition not met"
  },
  {
    "compound": "CCCSc1nc(=O)cc(O)n1-c1ccccc1F",
    "label": "condition met"
  },
  {
    "compound": "CCCSc1nc(=O)c(C(C)C)c(O)n1-c1ccccc1OC",
    "label": "condition not met"
  },
  {
    "compound": "CCCSc1nc(=O)c(CC)c(O)n1-c1ccccc1OC",
    "label": "condition not met"
  },
  {
    "compound": "COc1ccccc1-n1c(O)cc(=O)nc1SC(C)C",
    "label": "condition met"
  },
  {
    "compound": "CCCSc1nc(=O)cc(O)n1-c1ccccc1CC",
    "label": "condition met"
  },
  {
    "compound": "CCCSc1nc(=O)cc(O)n1-c1ccccc1Cl",
    "label": "condition met"
  }
]

Consider the additional compound presented here.
Input COc1ccccc1-n1c(O)cc(=O)nc1SCC(C)C ; condition: EC50 strictly below 0.3 µM. Does it hold? condition met
